The reported measurements were obtained from the supplement of paper PMC3937590.

tested on: SUM159PT; test: -log10 GI50 (growth inhibition 50%) (-log10(M)); higher = more potent growth inhibition
measurement-kind: -log10 GI50
Output spec: single numeric token, no unit.

compound: O=C(CCCCCCC(=O)Nc1ccccc1)NO
-log10 GI50: 3.92

// below: -log10 GI50 requested for another compound
Please look up its -log10 GI50: COC1=C2C[C@@H](C)C[C@H](OC)[C@H](O)[C@@H](C)/C=C(\C)[C@H](OC(N)=O)[C@@H](OC)/C=C\C=C(/C)C(=O)NC(=CC1=O)C2=O
8.21

###

Consider the following compounds and their measured -log10 GI50 readings.
tested on: LY2; assay: -log10 GI50 (growth inhibition 50%) (-log10(M)); higher = more potent growth inhibition
Output spec: single numeric token, no unit.

compound: CC(=O)O[C@H]1C(=O)[C@@]2(C)[C@H]([C@H](OC(=O)c3ccccc3)[C@]3(O)C[C@H](OC(=O)[C@H](O)[C@@H](NC(=O)c4ccccc4)c4ccccc4)C(C)=C1C3(C)C)[C@]1(OC(C)=O)CO[C@@H]1C[C@@H]2O [Paclitaxel]
-log10 GI50: 7.97
//
compound: CN(C)C/C=C/C(=O)Nc1cc2c(Nc3ccc(F)c(Cl)c3)ncnc2cc1O[C@H]1CCOC1 [BIBW2992]
-log10 GI50: 5.65
//
compound: C[C@@H](Oc1cc(-n2cnc3ccc(CN4CCN(C)CC4)cc32)sc1C(N)=O)c1ccccc1C(F)(F)F
-log10 GI50: 5.8
//
compound: C[C@@H](Oc1cc(-c2cnn(C3CCNCC3)c2)cnc1N)c1c(Cl)ccc(F)c1Cl
-log10 GI50: 5.8

// below: -log10 GI50 requested for another compound
Please look up its -log10 GI50: CC(C)C[C@@H](C=O)NC(=O)[C@H](CC(C)C)NC(=O)[C@H](CC(C)C)NC(=O)OCc1ccccc1 [MG-132]
6.49

###

tested on: HCC1428; assay: -log10 GI50 (growth inhibition 50%) (-log10(M)); higher = more potent growth inhibition
Consider the following molecules and their measured -log10 GI50 readings.
Output spec: single numeric token, no unit.

molecule: CCNCCCCNCCCCNCCCCNCCCCNC/C=C/CNCCCCNCCCCNCCCCNCCCCNCC
-log10 GI50: 6.33

molecule: Cn1ncc(Cl)c1-c1cc(C(=O)N[C@H](CN)Cc2ccc(F)c(F)c2)oc1Cl
-log10 GI50: 4.94

molecule: O=C(/C=C/C#Cc1cccc(NS(=O)(=O)c2ccccc2)c1)NO
-log10 GI50: 6.33

// below: -log10 GI50 requested for another molecule
Please look up its -log10 GI50: COc1cc([C@@H]2c3cc4c(cc3[C@@H](O[C@@H]3O[C@@H]5CO[C@@H](C)O[C@H]5[C@H](O)[C@H]3O)[C@H]3COC(=O)[C@H]23)OCO4)cc(OC)c1O [Etoposide]
4.47

###

system: MDAMB134VI; assay: -log10 GI50 (growth inhibition 50%) (-log10(M)); higher = more potent growth inhibition
Consider the following compounds and their measured -log10 GI50 readings.

smiles-text: O=C1C(Cl)=C(NCCN2CCOCC2)C(=O)c2ncccc21
-log10 GI50: 5.22
--
smiles-text: COc1ccc(C2=N[C@@H](c3ccc(Cl)cc3)[C@@H](c3ccc(Cl)cc3)N2C(=O)N2CCNC(=O)C2)c(OC(C)C)c1
-log10 GI50: 4.47
--
smiles-text: O=c1[nH]c2ccccc2n1C1CCN(Cc2ccc(-c3[nH]c4cc5ncnc5cc4nc3-c3ccccc3)cc2)CC1
-log10 GI50: 5.05
--
smiles-text: CC(=O)O[C@H]1C(=O)[C@@]2(C)[C@H]([C@H](OC(=O)c3ccccc3)[C@]3(O)C[C@H](OC(=O)[C@H](O)[C@@H](NC(=O)c4ccccc4)c4ccccc4)C(C)=C1C3(C)C)[C@]1(OC(C)=O)CO[C@@H]1C[C@@H]2O
-log10 GI50: 7.99
--
smiles-text: CS(=O)(=O)CCNCc1ccc(-c2ccc3ncnc(Nc4ccc(OCc5cccc(F)c5)c(Cl)c4)c3c2)o1
-log10 GI50: < 4.78
--
smiles-text: O=C(/C=C/C#Cc1cccc(NS(=O)(=O)c2ccccc2)c1)NO
-log10 GI50: 6.18
--
smiles-text: Nc1[nH]nc2nnc(-c3c(-c4ccccc4)nn4ccccc34)cc12
-log10 GI50: < 4
--
smiles-text: COc1cc(Nc2c(C#N)cnc3cc(OCCCN4CCN(C)CC4)c(OC)cc23)c(Cl)cc1Cl
-log10 GI50: < 4
--
smiles-text: CCCC(CCC)C(=O)O
-log10 GI50: 3.12
--
smiles-text: Cn1c(=O)n(-c2ccc(C(C)(C)C#N)cc2)c2c3cc(-c4cnc5ccccc5c4)ccc3ncc21
-log10 GI50: < 4.48

Please look up its -log10 GI50: O=C(c1ccc(Nc2nccc(-c3cc4ccccc4s3)n2)cc1)N1CCC(N2CCCC2)CC1
5.26

Also COc1cc2ncnc(Nc3cccc(Cl)c3)c2cc1OC , if possible.
4.32

Also CN(C)C/C=C/C(=O)Nc1cc2c(Nc3ccc(F)c(Cl)c3)ncnc2cc1O[C@H]1CCOC1 , if possible.
5.44

Also COc1cccc2c1C(=O)c1c(O)c3c(c(O)c1C2=O)C[C@@](O)(C(=O)CO)C[C@@H]3O[C@H]1C[C@H](N)[C@H](O)[C@H](C)O1 , if possible.
5.95

###

test system: MDAMB157; experiment: -log10 GI50 (growth inhibition 50%) (-log10(M)); higher = more potent growth inhibition
Tick true (1) if -log10 GI50 is 6 or greater. Tick false (0) if -log10 GI50 is less than 6.

These recorded examples may help you get a feel for the data.
smiles-text: CCC[C@H](N[C@H]1CCc2cc(F)cc(F)c2C1)C(=O)Nc1cn(C(C)(C)CNCC(C)(C)C)cn1
classification: false (0)

smiles-text: CCN(CC)C(=S)SSC(=S)N(CC)CC
classification: true (1)

smiles-text: O=C(CCCCCCC(=O)Nc1ccccc1)NO
classification: false (0)

smiles-text: COC1=C2C[C@@H](C)C[C@H](OC)[C@H](O)[C@@H](C)/C=C(\C)[C@H](OC(N)=O)[C@@H](OC)/C=C\C=C(/C)C(=O)NC(=CC1=O)C2=O
classification: true (1)

Given the entry CSCC[C@H](NC(=O)[C@H](Cc1ccccc1)NC[C@@H](NC[C@@H](N)CS)C(C)C)C(=O)O , answer whether its -log10 GI50 meets or surpasses 6.
false (0)

Also Cn1c(=O)n(-c2ccc(C(C)(C)C#N)cc2)c2c3cc(-c4cnc5ccccc5c4)ccc3ncc21 , if possible.
true (1)

Also O=C1NC(=O)/C(=C/c2ccc(-c3ccc(F)cc3O)o2)S1 , if possible.
false (0)

###

tested on: HCC1428; assay: -log10 GI50 (growth inhibition 50%) (-log10(M)); higher = more potent growth inhibition
measurement-kind: -log10 GI50
Output spec: single numeric token, no unit.

Example entries begin here.
compound: Cc1c(O)cccc1C(=O)N[C@@H](CSc1ccccc1)[C@H](O)CN1C[C@H]2CCCC[C@H]2C[C@H]1C(=O)NC(C)(C)C
-log10 GI50: 5.16

compound: O=c1[nH]cc(F)c(=O)[nH]1
-log10 GI50: 4.99

compound: C[C@@H](Oc1cc(-n2cnc3ccc(CN4CCN(C)CC4)cc32)sc1C(N)=O)c1ccccc1C(F)(F)F
-log10 GI50: 5.33

compound: COc1cccc2c1C(=O)c1c(O)c3c(c(O)c1C2=O)C[C@@](O)(C(=O)CO)C[C@@H]3O[C@H]1C[C@H](N)[C@H](O)[C@H](C)O1
-log10 GI50: 5.92

// below: -log10 GI50 requested for another compound
Please look up its -log10 GI50: CCCCCN(C)CCC(O)(P(=O)(O)O)P(=O)(O)O [Ibandronate sodium]
3.89

###

Consider the following molecules and their measured -log10 GI50 readings.
system: MCF10F; test: -log10 GI50 (growth inhibition 50%) (-log10(M)); higher = more potent growth inhibition
Output spec: single numeric token, no unit.

Example entries begin here.
smiles-text: O=C(O)c1ccc(-c2c[nH]c3ncc(-c4ccccc4)cc23)cc1C1CCCC1
reading: 4.59
//
smiles-text: C#Cc1cccc(Nc2ncnc3cc(OCCOC)c(OCCOC)cc23)c1
reading: 6.54
//
smiles-text: CO[C@H]1C[C@@H]2CC[C@@H](C)[C@@](O)(O2)C(=O)C(=O)N2CCCC[C@H]2C(=O)O[C@H]([C@H](C)C[C@@H]2CC[C@@H](O)[C@H](OC)C2)CC(=O)[C@H](C)/C=C(\C)[C@@H](O)[C@@H](OC)C(=O)[C@H](C)C[C@H](C)/C=C/C=C/C=C/1C
reading: 5.44
//
smiles-text: CCNCCCCNCCCCNCCCCNCCCCNC/C=C/CNCCCCNCCCCNCCCCNCCCCNCC
reading: 5.96
//
smiles-text: COc1cc2ncnc(Nc3cccc(Cl)c3)c2cc1OC
reading: 6.69

// below: -log10 GI50 requested for another molecule
Please look up its -log10 GI50: O=C(O)C(=O)O.[NH-][C@@H]1CCCC[C@H]1[NH-].[Pt+2]
5.35
